- target.entity: T1, glucose-dependent insulinotropic peptide (gastric inhibitory polypeptide) receptor (GIPR), primary cAMP assay … (human, UniProt P48546 22-466)
- T1 sequence (looked up): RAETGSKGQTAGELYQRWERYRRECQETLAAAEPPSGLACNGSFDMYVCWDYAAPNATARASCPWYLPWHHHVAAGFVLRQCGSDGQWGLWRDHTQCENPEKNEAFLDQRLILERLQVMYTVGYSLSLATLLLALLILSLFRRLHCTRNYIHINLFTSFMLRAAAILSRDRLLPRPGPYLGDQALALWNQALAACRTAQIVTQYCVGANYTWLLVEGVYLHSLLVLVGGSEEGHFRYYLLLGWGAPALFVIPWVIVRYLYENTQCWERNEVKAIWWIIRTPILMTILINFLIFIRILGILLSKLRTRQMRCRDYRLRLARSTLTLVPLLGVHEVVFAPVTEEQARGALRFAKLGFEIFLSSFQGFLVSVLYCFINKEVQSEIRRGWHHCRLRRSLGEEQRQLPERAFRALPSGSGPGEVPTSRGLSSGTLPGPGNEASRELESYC
- experimental.details: cell-based or functional assay
Starred links: 1 amine or outer side, 2 acyl side, 3 side chain; linkers in the order of their positions; H or OH if unused. Non-standard residues stand in square brackets, D forms with d. Groups on a side chain read outwards from the residue. Primed or numbered codes have the meaning given here. No end group written: not given here. *: point of attachment. γGlu = O=C(O)[C@H](CCC(=O)[*:2])N[*:1]; αMeF = C[C@](N)(Cc1ccccc1)C(=O)O; αMeK = C[C@](N)(CCCCN)C(=O)O; Lauroyl = CCCCCCCCCCCC(=O)*; αMeS = C[C@](N)(CO)C(=O)O; PEG2′ = not defined here; Aib = CC(C)(N)C(=O)O
assay.readout: cAMP Primary assay EC50, n1 (nM)
Give the number; nM is assumed, so skip it.

Previously resolved entries follow.
H[Aib]EGS[αMeF]TSDV[αMeS]SYK([PEG2′-PEG2′-γGlu-Lauroyl])EGEAA[αMeK]K([PEG2′-PEG2′-γGlu-Lauroyl])FIAFK([PEG2′-PEG2′-γGlu-Lauroyl])VEGG-NH2 [SEQ ID NO: 486] : 19.9
H[Aib]EGS[αMeF]TSDV[αMeS]SYK([PEG2′-PEG2′-γGlu-Lauroyl])EK([PEG2′-PEG2′-γGlu-Lauroyl])EAA[αMeK]EFIAFK([PEG2′-PEG2′-γGlu-Lauroyl])VEGG-NH2 [SEQ ID NO: 483] : 19.6
H[Aib]EGS[αMeF]TSDV[αMeS]SK([PEG2′-PEG2′-γGlu-Lauroyl])LEGK([PEG2′-PEG2′-γGlu-Lauroyl])AA[αMeK]EFIK([PEG2′-PEG2′-γGlu-Lauroyl])FVVEGG-NH2 [SEQ ID NO: 448] : 19.9

Next binder, cAMP Primary assay EC50, n1 to be filled in.
stdin: Look at this binder and give its reported cAMP Primary assay EC50, n1. H[Aib]EGS[αMeF]TSDV[αMeS]SYK([PEG2′-PEG2′-γGlu-Lauroyl])EGK([PEG2′-PEG2′-γGlu-Lauroyl])AA[αMeK]EFIAFK([PEG2′-PEG2′-γGlu-Lauroyl])VEGG-NH2 [SEQ ID NO: 484]
stdout: 19.9

Taken from patent US20200079833A1.
